Test Name: MRP1 drug-resistance reversers in H69AR cells – cell-based, doxorubicin co-treatment, pilot screen (AID 601)
Measurement Conditions: H69AR cells, CellTiter-Glo, 72 h; compound alone cytotoxicity; at 10 µM
Reported viability values are given for each entry in this list.
Answer with a number only, understood to be in %.

Use these answered entries as a reference point.
1. O=C(c1ccc2nc(-c3ccco3)c(-c3ccco3)nc2c1)N1CCC2(CC1)OCCO2 : 90.5
2. CC(C)N(CCC(C(N)=O)(c1ccccc1)c1ccccn1)C(C)C (stereo unspecified) : 91.8
3. CC(=O)[C@@]1(O)CC[C@H]2[C@@H]3CC=C4C[C@@H](O)CC[C@]4(C)[C@H]3CC[C@@]21C : 89.8
4. C=CCn1c(O)c(C(C)=NCc2cccnc2)c(=O)[nH]c1=O : 92.2

# input Using the record for `COc1ccc(C(=O)N2CCCC2=O)cc1` , report its viability.
# output 103

# input Using the record for COP(=O)(OC)C(O)C(Cl)(Cl)Cl (stereo unspecified) , report its viability.
# output 82.6

====

Reported inhibition values are given for each entry in this list.
System: Pantothenate synthetase (Mycobacterium tuberculosis (strain ATCC 25618 / H37Rv)) (UniProt P9WIL5)
Sequence (P9WIL5 whole entry, looked up): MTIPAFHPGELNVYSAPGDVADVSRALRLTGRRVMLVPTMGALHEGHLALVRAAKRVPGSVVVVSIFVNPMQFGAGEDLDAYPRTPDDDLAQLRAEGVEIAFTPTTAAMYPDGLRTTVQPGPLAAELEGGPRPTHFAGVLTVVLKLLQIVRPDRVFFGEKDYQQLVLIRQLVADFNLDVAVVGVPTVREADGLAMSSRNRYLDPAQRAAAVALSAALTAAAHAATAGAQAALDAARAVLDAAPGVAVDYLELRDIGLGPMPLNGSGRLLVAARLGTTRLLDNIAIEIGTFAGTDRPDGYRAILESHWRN
Test Name: Coupled enzyme confirmation of inhibitors against recombinant Mtb PanC (AID 375);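 further: 0% = full reaction with vehicle and 100% = no enzyme background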
Measurement Conditions: coupled enzyme assay; at 10 µM, stronger effect = higher value
Answer with a number only, understood to be in %.

Use these answered entries as a reference point.
1. O=C(CN1CCCC1)Nc1ccc(NC(=O)Nc2ccccc2)cc1 : 0
2. COc1ccc(N(CC(=O)Nc2ccc3c(c2)OCCO3)S(=O)(=O)c2cccnc2)cc1 : 0
3. CC1(C)CC(=O)C2=C(C1)OC(=O)C2(NC(=O)c1cccs1)C(F)(F)F (stereo not given) : 1
4. O=C1NC(=O)C(c2ccccc2)(c2ccccc2)N1 : 0
5. CC(=O)[C@H]1CC[C@H]2[C@@H]3CC[C@H]4C[C@H](O)CC[C@]4(C)[C@H]3C(=O)C[C@]12C : 0

# input Using the record for `Cc1cccc(C)c1OCc1nnc2c3cnn(C)c3ncn12` , report its inhibition.
# output 0

# input Using the record for Cn1c(C(=O)N2CCCC(C(=O)NCCCc3ccccc3)C2)cc2sccc21 (stereo not given) , report its inhibition.
# output 0

# input Using the record for `O=C(CN1CCOCC1)Nc1cccc(C(=O)Nc2cccc(C(F)(F)F)c2)c1` , report its inhibition.
# output 2

# input Using the record for Cc1ccc(CCNC(=O)CC2Oc3ccc(C)cc3NC2=O)cc1 (stereo not given) , report its inhibition.
# output 0

# input Using the record for COc1cccc(C2C(C(N)=O)=C(C)Nc3nc(CCCO)nn32)c1OC (stereo not given) , report its inhibition.
# output 3

====

System: Pantothenate synthetase (Mycobacterium tuberculosis (strain ATCC 25618 / H37Rv)) (UniProt P9WIL5)
Test Name: Coupled enzyme confirmation of inhibitors against recombinant Mtb PanC (AID 375);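 further: 0% = full reaction with vehicle and 100% = no enzyme background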
Measurement Conditions: coupled enzyme assay; at 10 µM, stronger effect = higher value
The source made the active and inactive calls. No rule for the calls is given here.
Reported inhibition values are given for each entry in this list.

# input Using the record for COc1ccccc1N1CCN(C(CNS(=O)(=O)c2cc(F)ccc2F)c2cccnc2)CC1 (stereo not given) , report its inhibition.
# output 0% (inactive)

# input Using the record for `CCC(CC)n1[nH]c(=O)c2c(C)cc(C)nc21` , report its inhibition.
# output 3% (inactive)

# input Using the record for `CC(=O)Nc1ccc(S(=O)(=O)N2CCN(c3cc(C)nc4ccccc34)CC2)cc1` , report its inhibition.
# output 5% (inactive)

# input Using the record for `O=C(NCCCN1CCCC1=O)C1CCN(S(=O)(=O)N2CCOCC2)CC1` , report its inhibition.
# output 0% (inactive)
